Documented max response, negative = inhibition across a set of compounds
system_name: Cruzipain (Trypanosoma cruzi)
assay_summary: qHTS Assay for Promiscuous and Specific Inhibitors of Cruzain (without detergent);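 further: plate controls were enzyme without inhibitor for no effect and buffer without enzyme for full effect; nearly all actives have a fitted effect of over 40% in size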
settings: purified cruzain, Z-FR-AMC fluorescence, no detergent
The campaign covered roughly 200,000 compounds. About 4,500 (2.2%) were called active. About 12% were inconclusive and are not listed. The list comes from a sample in which actives are over-represented; it also holds close analogues and randomly drawn compounds.
Field format: number, assumed %, no unit text.

Cc1ccc(C)c(NC(=O)C(OC(=O)c2ccc(C)s2)c2ccccc2)c1 (stereo unspecified); 12.2

query: max response, negative = inhibition for CCOc1ccc(S(=O)(=O)c2cn(Cc3ccc(OC)cc3)c3ccc(F)cc3c2=O)cc1 ?
result: 0.948

query: What measured max response, negative = inhibition goes with CN(CCCC(=O)Nc1nccs1)S(=O)(=O)c1ccc(Cl)cc1 ?
result: -7.25

query: Requested read-out: max response, negative = inhibition. Entry: Cc1nnc(SCC(=O)N/N=C/c2cn(-c3ccccc3)nc2-c2ccc(F)cc2)n1-c1ccccc1
result: -3.1
